Assay details: protein stability index of a GFP-peptide fusion (GPS, HEK-293T) (PSI 1-6); higher = more stable;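 note: 24-mer peptide tiles fused after GFP, lentivirally expressed, FACS-sorted into six equal bins by GFP/DsRed ratio, decoded by Illumina sequencing, PSI is the read-weighted mean bin number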
Experimental parameters: treatment: DMSO; c terminus: a fixed tail appended
# cutoff 3 applies to protein stability index; >= gives Y, < gives N

- Residues: "HNRVSKEDEDIYKLRHDLKKTSIT [PLK2]"
  Class name: "Y"

Exercise: Kindly determine if protein stability index recorded for SSGGSSGSSSDNRTYRYSNRYCGG [DYRK1B] is above or exactly 3.
Solution: Y

Exercise: Follow-up entry: ENHSMYCVQCKMPVCYQCLEEGKH [TRIM9]
Solution: Y

Exercise: Follow-up entry: LLNPNLKDTVICAMKITQEPQGLG [SPACA3]
Solution: N

Exercise: Follow-up entry: TLQNGRRHIHHLGNQLQLNQHCLD [BRF1]
Solution: Y

Exercise: Follow-up entry: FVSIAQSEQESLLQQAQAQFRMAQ [SMG5]
Solution: N

Exercise: Follow-up entry: YPFVLFYSKFHGLEMCVDARTFGN [KMT2E]
Solution: N

Exercise: Follow-up entry: LIWVVGPVLAVVFIICIVIAILLY [PTPRD]
Solution: N

====

Assay details: protein stability index of a GFP-peptide fusion (GPS, HEK-293T) (PSI 1-6); higher = more stable
Experimental parameters: treatment: MLN4924 1 uM, 8 h; c terminus: a fixed tail appended
Parameter: protein stability index
Reply briefly: the number, and no unit.

// worked examples, protein stability index included
- Residues: "FVATFLRYAVVLNATWLVNSAAHL [SCD]"
  protein stability index: 2.97
- Residues: "DRPRCCLRGKECCINRFQQVESRW [BTBD1]"
  protein stability index: 3.06

Next:
Exercise: Fill blank: measured protein stability index of the sequence VDADAGHNAWLSYSLLPQSTAPGL [PCDHGC5] is ____.
Solution: 3

====

Assay details: protein stability index of a GFP-peptide fusion (GPS, HEK-293T) (PSI 1-6); higher = more stable
Experimental parameters: treatment: MLN4924 1 uM, 8 h; c terminus: a fixed tail appended
Parameter: protein stability index
Reply briefly: the number, and no unit.

// worked examples, protein stability index included
- Residues: "ADIMISFVRGDHRDNSPFDGPGGN [MMP1]"
  protein stability index: 3.07
- Residues: "FTLNPDKKTCRRINYCALNKPGCE [MATN2]"
  protein stability index: 2.96

Exercise: Fill blank: measured protein stability index of the sequence AGNCPECGTPLRKSNFRVQLFEDP [MNAT1] is ____.
Solution: 4.08

Exercise: Follow-up entry: ARYGHLDVVEYLVDRCGASVEAGG [FEM1A]
Solution: 2.98

====

Assay details: protein stability index of a GFP-peptide fusion (GPS, HEK-293T) (PSI 1-6); higher = more stable
Experimental parameters: treatment: MLN4924 1 uM, 8 h; c terminus: a fixed tail appended
Parameter: protein stability index
Reply briefly: the number, and no unit.

// worked examples, protein stability index included
- Residues: "QRELEIPEQQVDMHDMLLEELAPV [ZNF449]"
  protein stability index: 5.12
- Residues: "TLVQDLANAFQQEAQTSGKERLLL [CHIT1]"
  protein stability index: 2.91
- Residues: "SQIQGLIGSVEEQLAQLRCEMEQQ [KRT16]"
  protein stability index: 4.52
- Residues: "YYIDDVFHALVREIRRKEKEAVLA [RIT1]"
  protein stability index: 1.94

Next:
Exercise: Fill blank: measured protein stability index of the sequence LRTHIDAIILALPEDLQGILLKTG [DENND6A] is ____.
Solution: 2.4
